B1: TIA1 (parent)
chain: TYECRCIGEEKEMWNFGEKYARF

- Variants of: B1
- run-description: protein stability index of a GFP-peptide fusion (GPS, HEK-293T) (PSI 1-6); higher = more stable;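 also: lentivirally expressed fusions sorted by FACS into six bins by GFP to DsRed ratio, PSI derived from sequencing read proportions per bin multiplied by bin number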
- run-parameters: c terminus: native
Please provide measured protein stability index for the entries that follow.
Answer field: number only, no words.

protein stability index reading for E12W : 2.5

protein stability index reading for C6R : 3.38

protein stability index reading for F23H : 1.83

protein stability index reading for K19S : 2.27

protein stability index reading for C4T : 2.31

protein stability index reading for I7S : 2.16

protein stability index reading for C4M : 2.62

protein stability index reading for F16R : 2.14

protein stability index reading for A21M : 1.99

protein stability index reading for E10C : 2.25

protein stability index reading for E3S : 1.94

protein stability index reading for I7D : 2.87

protein stability index reading for C6Y : 2.14

protein stability index reading for K11L : 1.5

protein stability index reading for E18I : 2.3

protein stability index reading for E9Q : 2.46

protein stability index reading for E18K : 2.49

protein stability index reading for G8D : 1.58

protein stability index reading for F16W : 1.77

protein stability index reading for W14L : 1.64

protein stability index reading for R22D : 3.77

protein stability index reading for W14G : 2.88

protein stability index reading for M13T : 2.18

protein stability index reading for K11E : 2.54

protein stability index reading for F16G : 2.29

protein stability index reading for E12C : 2.08

protein stability index reading for C4K : 3.16

protein stability index reading for I7L : 1.98

protein stability index reading for R5H : 2.62

protein stability index reading for Y2H : 2.44

protein stability index reading for G17I : 1.16

protein stability index reading for G17W : 2.2

protein stability index reading for F23K : 3.29

protein stability index reading for R22K : 3.59

protein stability index reading for Y2M : 2.88

protein stability index reading for K11M : 1.88

protein stability index reading for F16K : 2.44

protein stability index reading for F16N : 1.85

protein stability index reading for F16D : 2.78

protein stability index reading for A21S : 1.97

protein stability index reading for G17K : 1.98

protein stability index reading for M13Y : 1.56

protein stability index reading for R5P : 3.48

protein stability index reading for F16V : 2.45

protein stability index reading for G17Y : 1.7

protein stability index reading for Y2N : 3.75

protein stability index reading for E12I : 1.39
